Source: ChEMBL document CHEMBL1132231

# TEST_SYSTEM: D(2) dopamine receptor (Rattus norvegicus)
# Sequence (P61169 whole entry): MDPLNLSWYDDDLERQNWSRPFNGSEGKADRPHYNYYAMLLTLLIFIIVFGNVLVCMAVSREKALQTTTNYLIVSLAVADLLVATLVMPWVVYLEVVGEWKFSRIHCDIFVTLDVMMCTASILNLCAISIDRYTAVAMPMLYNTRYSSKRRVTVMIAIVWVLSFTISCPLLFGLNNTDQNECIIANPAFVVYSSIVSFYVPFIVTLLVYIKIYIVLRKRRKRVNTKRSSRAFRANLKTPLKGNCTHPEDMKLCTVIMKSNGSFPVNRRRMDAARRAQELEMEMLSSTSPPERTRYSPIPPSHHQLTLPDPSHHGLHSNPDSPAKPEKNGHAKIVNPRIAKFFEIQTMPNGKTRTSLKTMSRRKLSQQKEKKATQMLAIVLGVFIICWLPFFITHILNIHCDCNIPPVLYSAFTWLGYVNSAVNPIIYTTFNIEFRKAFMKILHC
# METHOD_NOTES: In vitro low binding affinity towards Dopamine receptor D2 by the displacement of [3H]spiperone radioligand in rat striatal membranes
# Assay type: cell membranes, Membrane
pKi: −log10 of the molar value.
Catalogue of pKi values
PROPERTY_MEASURED: pKi

>>> recorded_value("O=C1Cc2c(OCCNCCCc3c[nH]c4ccccc34)ccc(F)c2N1")
8.52
>>> recorded_value("O=C1Cc2c(OCCNCc3ccc4ccccc4c3)ccc(F)c2N1")
8.05
>>> recorded_value("O=C1Cc2c(OCCNCc3cccs3)ccc(F)c2N1")
7.66
>>> recorded_value("Clc1ccc(OCCNCc2cccs2)c2c(Cl)c[nH]c12")
7.42
>>> recorded_value("CNCCOc1cccc2c1CC(=O)N2")
6.83
>>> recorded_value("O=C1Cc2c(OCCN3Cc4ccccc4C3)ccc(Cl)c2N1")
8.55
>>> recorded_value("Oc1cccc(OCCNCc2ccccc2)c1")
6.94
>>> recorded_value("CN(CCOc1ccc(Cl)c2c1CC(=O)N2)Cc1ccccc1")
7.63
>>> recorded_value("CCCCNCCOc1ccc(Cl)c2c1CC(=O)N2")
7.84
>>> recorded_value("O=C1Cc2c(cccc2OCCNCc2ccccc2)N1")
7.94
>>> recorded_value("Clc1ccc(OCCNCc2ccccc2)c2cc[nH]c12")
7.84
>>> recorded_value("O=C1Cc2c(OCCNCc3ccc(-c4ccccc4)cc3)ccc(Cl)c2N1")
7.33

====

# TEST_SYSTEM: UniProtKB P19327
# Sequence (P19327 whole entry): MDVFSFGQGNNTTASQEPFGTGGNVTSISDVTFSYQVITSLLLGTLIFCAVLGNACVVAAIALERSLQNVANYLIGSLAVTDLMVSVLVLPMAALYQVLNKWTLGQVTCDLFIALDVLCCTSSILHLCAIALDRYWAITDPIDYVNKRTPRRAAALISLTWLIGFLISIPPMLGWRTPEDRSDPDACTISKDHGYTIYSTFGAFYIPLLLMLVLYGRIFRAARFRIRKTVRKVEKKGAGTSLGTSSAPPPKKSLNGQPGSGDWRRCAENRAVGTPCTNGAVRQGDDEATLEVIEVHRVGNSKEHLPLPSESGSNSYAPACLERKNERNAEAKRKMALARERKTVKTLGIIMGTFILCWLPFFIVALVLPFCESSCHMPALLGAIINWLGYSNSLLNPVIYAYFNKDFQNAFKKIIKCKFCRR
# METHOD_NOTES: In vitro binding affinity towards 5-hydroxytryptamine 1A receptor by the displacement of [3H]8-OH-DPAT radioligand in rat hippocampal homogenates
# Assay type: tissue-based, Hippocampus
pKi: −log10 of the molar value.
Items are presented alongside their recorded pKi.
PROPERTY_MEASURED: pKi

>>> recorded_value("O=C1Cc2c(OCCNCc3ccc4ccccc4c3)ccc(F)c2N1")
6.92
>>> recorded_value("Cc1ccc(CNCCOc2ccc(Cl)c3c2CC(=O)N3)cc1")
5.93
>>> recorded_value("O=C1Cc2c(OCCNCc3ccccc3)ccc(Cl)c2N1")
5.58
>>> recorded_value("O=C1Cc2c(OCCNCC3CCCCC3)ccc(F)c2N1")
7.77
>>> recorded_value("O=C1Cc2c(OCCNCCCc3c[nH]c4ccccc34)ccc(F)c2N1")
7.92
>>> recorded_value("O=C1Cc2c(OCCN3Cc4ccccc4C3)ccc(Cl)c2N1")
7.39
>>> recorded_value("O=C1Cc2c(OCCNCc3cccs3)ccc(F)c2N1")
7.41
>>> recorded_value("NCCOc1ccc(F)c2c1CC(=O)N2")
7.60
>>> recorded_value("c1ccc(CCCCNCCOc2cccc3[nH]ccc23)cc1")
9.40
>>> recorded_value("O=C1Cc2c(OCCNCc3ccsc3)ccc(Cl)c2N1")
7.08

====

# TEST_SYSTEM: D(2) dopamine receptor (Rattus norvegicus)
# METHOD_NOTES: In vitro low binding affinity towards Dopamine receptor D2 by the displacement of [3H]spiperone radioligand in rat striatal membranes
# Format: cell membranes, Membrane
pKi: −log10 of the molar value.
PROPERTY_MEASURED: pKi

>>> recorded_value("Clc1ccc(OCCNCc2ccccc2)c2c(Cl)c[nH]c12")
7.70
>>> recorded_value("O=C1Cc2c(OCCN3Cc4ccccc4C3)ccc(F)c2N1")
7.80
>>> recorded_value("O=C1Cc2c(cccc2OCCNCCCCc2ccccc2)N1")
8.69
>>> recorded_value("c1ccc(CCCCNCCOc2cccc3[nH]ccc23)cc1")
7.84
>>> recorded_value("c1ccc(CNCCOc2cccc3[nH]ccc23)cc1")
7.41
>>> recorded_value("O=C1Cc2c(OCCNCc3ccc(F)cc3)ccc(Cl)c2N1")
7.86
>>> recorded_value("Cc1ccc(CNCCOc2ccc(Cl)c3c2CC(=O)N3)cc1")
8.26
>>> recorded_value("O=C1Cc2c(OCCNCc3ccccc3)ccc(F)c2N1")
8.28
>>> recorded_value("O=C1Cc2c(OCCNCc3ccc(Cl)cc3)ccc(Cl)c2N1")
8.39
>>> recorded_value("c1ccc(CNC[C@H]2CCc3ccc4[nH]ccc4c3O2)cc1")
7.44
>>> recorded_value("Clc1ccc(CNCCOc2ccc(Cl)c3[nH]cc(Cl)c23)cc1")
7.53
>>> recorded_value("O=C1Cc2c(OCCN3CCc4ccccc4C3)ccc(Cl)c2N1")
8.37
